src = ChEMBL document CHEMBL1135861

# Tested on: Gonadotropin-releasing hormone receptor (Rattus norvegicus)
# Sequence (P30969 whole entry): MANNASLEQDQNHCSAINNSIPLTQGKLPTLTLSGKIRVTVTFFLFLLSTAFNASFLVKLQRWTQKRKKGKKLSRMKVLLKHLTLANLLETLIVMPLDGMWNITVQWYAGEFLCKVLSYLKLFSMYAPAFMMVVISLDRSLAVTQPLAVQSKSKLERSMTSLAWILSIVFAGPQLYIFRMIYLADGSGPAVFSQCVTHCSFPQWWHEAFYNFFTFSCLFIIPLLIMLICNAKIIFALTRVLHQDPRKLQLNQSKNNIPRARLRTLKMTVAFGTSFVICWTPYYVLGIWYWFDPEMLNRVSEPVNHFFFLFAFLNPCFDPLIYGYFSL
# Assay: Binding affinity to rat gonadotropin-releasing hormone receptor
I'd appreciate it if you could supply pKi values for the items below.
// scale note: pKi = -log10(conc_M); give the bare number

[in] So what does the record say about pKi for Cc1cc2c(cc1Cc1ccc(C(=O)NCC3CCCC(CNC(=O)C(F)(F)F)C3)o1)C(C)(C)CCC2(C)C (stereo unspecified) ?
[out] 6.60

[in] Request the reported pKi associated with CCOC(=O)[C@H]1CC[C@H](CNC(=O)c2ccc(Cc3cc4c(cc3C)C(C)(C)CCC4(C)C)o2)CC1
[out] 5.56

[in] // returns reported pKi for input Cc1cnc(CNC(=O)c2ccc(Cc3cc4c(cc3C)C(C)(C)CCC4(C)C)o2)cn1
[out] 7.26

[in] Would you kindly share the measured pKi for Cc1cc2c(cc1Cc1ccc(C(=O)NCC3CCC(C#N)CC3)o1)C(C)(C)CCC2(C)C (stereo unspecified) ?
[out] 6.25

[in] Any idea what its pKi is? The compound is Cc1cc2c(cc1Cc1ccc(C(=O)NCc3ccccc3)o1)C(C)(C)CCC2(C)C
[out] 6.62

[in] // pKi lookup, key: Cc1cc2c(cc1Cc1ccc(C(=O)NCC3CCC(CNC(=O)C(F)(F)F)CC3)o1)C(C)(C)CCC2(C)C (stereo unspecified)
[out] 5.57
